Assign Km to each entry below.
Tested on: rat liver cytosol
condition.label: pH 7.4
Lab book: enter the figure in µM, no units written.

Param item = O=c1oc2cc(O)ccc2cc1-n1cncn1 ; retrieve measured Km. 1.3

And for O=c1oc2cc(O)ccc2cc1-c1cccnc1 [compound 13, 3-(4-pyridin-3-yl)-7-hydroxycoumarin] ? 2.3

###

experiment: Sulfonation of 7-hydroxycoumarin derivatives by mouse liver cytosol
condition.label: DBA/2N/Kuo, mouse, pH 7.4
measured.attribute: Km (µM)
The response must be a number in µM with no trailing unit.

Need Km, item CN(C)c1ccc(-c2cc3ccc(O)cc3oc2=O)cc1 [compound 12] 0.49

And for O=c1oc2cc(O)ccc2cc1-c1ccc(O)cc1 [compound 9, 3-(4-hydroxyphenyl)-7-hydroxycoumarin] ? 0.46
